# Tested on: NCI-H157
# measurement-notes: Growth inhibition of human NCI-H157 cells at 100 uM after 48 hrs by SRB assay
# Format: functional
# study-conditions: NCI-H157, 48 h, read-out: GI
Exercise: for every item that follows, state its recorded inhibition of growth at 100 µM.
Give the quantity in %, number only.

Which inhibition of growth at 100 µM value is on record for CN(C(=S)NC(=O)c1cccc(Cl)c1)c1ccccc1 ?
45.1

Which inhibition of growth at 100 µM value is on record for O=C(NC(=S)NCc1ccccc1)c1cccc(Cl)c1 ?
40.5

Which inhibition of growth at 100 µM value is on record for O=C(NC(=S)Nc1ccc(Cl)cc1)c1cccc(Cl)c1 ?
52.6
